Tested on: P14 cells
Assay Procedure: P14 splenocyte in vitro activation, re-stimulation and expansion
Type: cell-based, mouse
Condition Context: Day6; 80 mM; P14 cells

Given Smiles	Units Label	Fold of proliferation, Normalized to W/O
OC[C@H]1O[C@@](CO)(O[C@H]2O[C@H](CO)[C@@H](O)[C@H](O)[C@H]2O)[C@@H](O)[C@@H]1O	fold	1.80
O=C[C@H](O)[C@@H](O)[C@@H](O)[C@H](O)CO	fold	1.59
OC[C@H]1O[C@H](O[C@H]2O[C@H](CO)[C@@H](O)[C@H](O)[C@H]2O)[C@H](O)[C@@H](O)[C@@H]1O	fold	1.42
O=C(CO)[C@@H](O)[C@H](O)[C@H](O)CO	fold	2.10

---

Test system: P14 cells
Assay Procedure: P14 splenocyte in vitro activation, re-stimulation and expansion
Type: cell-based, mouse
Condition Context: Day9; 80 mM; w/o 3.5

Given Smiles	Tim3^−TCF-1^+ ratio of CD8^+ T cells (%)
OC[C@H]1O[C@@](CO)(O[C@H]2O[C@H](CO)[C@@H](O)[C@H](O)[C@H]2O)[C@@H](O)[C@@H]1O	48.6
O=C[C@H](O)[C@@H](O)[C@@H](O)[C@H](O)CO	37.4
O=C(CO)[C@@H](O)[C@H](O)[C@H](O)CO	48.9
OC[C@H]1O[C@H](O[C@H]2O[C@H](CO)[C@@H](O)[C@H](O)[C@H]2O)[C@H](O)[C@@H](O)[C@@H]1O	34.6
